Data credit: patent US20250215029A1

Biological target: Recombinant STAT3 protein (STAT3 (G127-I722)) (Homo sapiens)
Construct: Recombinant STAT3 protein (STAT3 (G127-I722))
Sequence (P40763 127-722): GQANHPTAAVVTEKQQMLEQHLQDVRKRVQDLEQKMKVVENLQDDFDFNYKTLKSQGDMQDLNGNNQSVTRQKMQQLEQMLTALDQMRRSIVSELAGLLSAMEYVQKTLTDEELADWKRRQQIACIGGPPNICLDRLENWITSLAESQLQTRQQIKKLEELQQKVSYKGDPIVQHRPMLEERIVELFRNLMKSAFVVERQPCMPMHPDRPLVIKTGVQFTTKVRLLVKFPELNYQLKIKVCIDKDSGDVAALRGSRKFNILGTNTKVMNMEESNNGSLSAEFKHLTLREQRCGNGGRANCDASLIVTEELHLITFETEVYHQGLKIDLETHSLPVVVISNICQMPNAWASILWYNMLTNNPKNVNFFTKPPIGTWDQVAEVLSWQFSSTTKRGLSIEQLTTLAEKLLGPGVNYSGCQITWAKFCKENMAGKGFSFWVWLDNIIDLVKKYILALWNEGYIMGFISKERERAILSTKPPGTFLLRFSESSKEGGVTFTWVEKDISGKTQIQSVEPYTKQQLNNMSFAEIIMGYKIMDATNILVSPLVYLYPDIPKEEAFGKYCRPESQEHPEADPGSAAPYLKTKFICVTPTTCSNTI
Experiment: STAT3 Fluorescence Polarization (FP) Assay
Type: binding
Settings: STAT3 (G127-I722) 25 nM, probe 5-FAM-GpYLPQTV-NH2 2 nM, 45-minute incubation; read-out: STAT3 (FP assay IC50 class)
pIC50: −log10 of the molar value.
Listed here are compounds together with their documented pIC50.

[[record]]
compound = "N#C[C@@H]1CN(C(=O)[C@@H]2CC[C@@H]3CCCC[C@H](NC(=O)c4cc5cc(C(F)(F)P(=O)(O)O)ccc5s4)C(=O)N32)C[C@H]1c1cccc(=O)[nH]1 (relative stereo)"
target_or_test_system = "Recombinant STAT3 protein (STAT3 (G127-I722)) (Homo sapiens)"
result = "6.00 to 7.00"

[[record]]
compound = "COc1ccncc1C1CN(C(=O)[C@@H]2CC[C@@H]3CCC[C@H](NC(=O)c4cc5cc(C(F)P(=O)(O)O)ccc5s4)C(=O)N32)C1 (stereo partly drawn)"
target_or_test_system = "Recombinant STAT3 protein (STAT3 (G127-I722)) (Homo sapiens)"
result = "> 7.00"


Proceed to the following item.
Problem: Hi! What's the reported pIC50 for O=C(N[C@H]1CCCC[C@H]2CC[C@@H](C(=O)N3CCC(c4ccncn4)CC3)N2C1=O)c1cc2cc(C(F)P(=O)(O)O)ccc2s1 (stereo partly drawn) on Recombinant STAT3 protein (STAT3 (G127-I722)) (Homo sapiens)?
Solution: 5.00 to 6.00

----------
Target: Recombinant STAT6 protein (STAT6 (W123-T658)) (Homo sapiens, UniProt P42226)
Construct: Recombinant STAT6 protein (STAT6 (W123-T658))
Sequence (P42226 123-658): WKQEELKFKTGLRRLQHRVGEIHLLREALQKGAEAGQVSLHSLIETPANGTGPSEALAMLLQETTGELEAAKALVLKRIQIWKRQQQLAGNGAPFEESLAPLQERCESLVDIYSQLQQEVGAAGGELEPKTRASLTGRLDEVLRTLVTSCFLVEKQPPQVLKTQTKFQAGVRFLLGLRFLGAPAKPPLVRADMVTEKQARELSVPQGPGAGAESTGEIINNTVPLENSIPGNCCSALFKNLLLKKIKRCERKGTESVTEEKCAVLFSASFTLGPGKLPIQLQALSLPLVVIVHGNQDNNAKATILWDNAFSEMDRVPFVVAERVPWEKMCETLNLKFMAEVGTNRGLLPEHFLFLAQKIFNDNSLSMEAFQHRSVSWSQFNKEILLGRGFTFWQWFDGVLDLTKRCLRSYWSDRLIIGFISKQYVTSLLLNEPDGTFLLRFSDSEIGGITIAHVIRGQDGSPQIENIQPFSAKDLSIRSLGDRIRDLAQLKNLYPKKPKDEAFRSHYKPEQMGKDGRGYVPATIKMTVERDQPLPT
Assay: STAT6 Fluorescence Polarization (FP) Assay
Assay type: binding
Details: STAT6 (W123-T658) 250 nM, probe 5-FAM-Ap[…]-NH2 2 nM, 45-minute incubation; read-out: STAT6 (FP assay IC50 class)
pIC50: −log10 of the molar value.
readout-kind: pIC50

As a guide, the following entries are already answered.
[[record]]
molecule = "Cc1cncnc1C1CN(C(=O)[C@@H]2CC[C@@H]3CCC[C@H](NC(=O)c4cc5cc(C(F)(F)P(=O)(O)O)ccc5s4)C(=O)N32)C1 [Compound 652]"
result = "5.52 to 6.52"

[[record]]
molecule = "Cc1nnc(C2CN(C(=O)[C@@H]3CC[C@@H]4CCC[C@H](NC(=O)c5cc6cc(C(F)(F)P(=O)(O)O)ccc6s5)C(=O)N43)CCO2)o1 (some centres unmarked) [Compound 1127]"
result = "5.52 to 6.52"

[[record]]
molecule = "Cc1cc(N(C)C)ncc1C1CN(C(=O)[C@@H]2CC[C@@H]3CCC[C@H](NC(=O)c4cc5cc(CP(=O)(O)O)ccc5s4)C(=O)N32)C1 [Compound 507]"
result = "4.52 to 5.52"


Proceed to the following item.
Problem: Any idea what pIC50 was measured for O=C(N[C@H]1CCCC[C@H]2CC[C@@H](C(=O)N[C@H]3COC[C@H]3F)N2C1=O)c1cc2cc(C(F)(F)P(=O)(O)O)ccc2s1 (relative stereo) [Compound 1111] ?
Solution: 4.52 to 5.52
